Assay: Spectroscopic measurements (absorption, emission, quantum yield, extinction coefficient)
Assay type: physicochemical
Conditions: BDNCA library
The entries below are paired with their reported Qunt. Yield.
recorded.metric: Qunt. Yield

{"columns": ["molecule", "recorded.metric", "measured"],
 "data": [
  ["Cc1cc(/C=C/c2ccc(Oc3ccc(Cl)cc3)cc2)n2c1C(c1ccc(NC(=O)CCl)cc1)=C1C=CC=[N+]1[B-]2(F)F", "Qunt. Yield", 0.15],
  ["C=CCOc1ccccc1/C=C/C1=[N+]2C(=C(c3ccc(NC(=O)CCl)cc3)c3cccn3[B-]2(F)F)C(C)=C1", "Qunt. Yield", 0.13],
  ["CC1=CC(/C=C/c2c(Br)ccc3c2OCO3)=[N+]2C1=C(c1ccc(NC(=O)CCl)cc1)c1cccn1[B-]2(F)F", "Qunt. Yield", 0.07],
  ["COc1cc(Cl)c(/C=C/C2=[N+]3C(=C(c4ccc(NC(=O)CCl)cc4)c4cccn4[B-]3(F)F)C(C)=C2)c(Cl)c1O", "Qunt. Yield", 0.01],
  ["COc1ccc(/C=C/c2cc(C)c3n2[B-](F)(F)[N+]2=CC=CC2=C3c2ccc(NC(=O)CCl)cc2)c(Br)c1O", "Qunt. Yield", 0.01],
  ["CCOc1ccc(/C=C/C2=[N+]3C(=C(c4ccc(NC(=O)CCl)cc4)c4cccn4[B-]3(F)F)C(C)=C2)cc1OCC", "Qunt. Yield", 0.06],
  ["Cc1cc(/C=C/c2ccccc2OC(F)F)n2c1C(c1ccc(NC(=O)CCl)cc1)=C1C=CC=[N+]1[B-]2(F)F", "Qunt. Yield", 0.08],
  ["CC1=CC(/C=C/c2ccc(C#N)cc2)=[N+]2C1=C(c1ccc(NC(=O)CCl)cc1)c1cccn1[B-]2(F)F", "Qunt. Yield", 0.13],
  ["CC1=CC(/C=C/c2cccc3ccccc23)=[N+]2C1=C(c1ccc(NC(=O)CCl)cc1)c1cccn1[B-]2(F)F", "Qunt. Yield", 0.09],
  ["CC1=CC(/C=C/c2cccc(Oc3ccccc3)c2)=[N+]2C1=C(c1ccc(NC(=O)CCl)cc1)c1cccn1[B-]2(F)F", "Qunt. Yield", 0.11],
  ["Cc1cc(/C=C/c2ccc(Oc3ccc(C=O)cc3)cc2)n2c1C(c1ccc(NC(=O)CCl)cc1)=C1C=CC=[N+]1[B-]2(F)F", "Qunt. Yield", 0.02],
  ["COc1cc(/C=C/C2=[N+]3C(=C(c4ccc(NC(=O)CCl)cc4)c4cccn4[B-]3(F)F)C(C)=C2)cc(OC)c1O", "Qunt. Yield", 0.01],
  ["CC1=CC(/C=C/c2ccc(Cl)c(Cl)c2)=[N+]2C1=C(c1ccc(NC(=O)CCl)cc1)c1cccn1[B-]2(F)F", "Qunt. Yield", 0.08],
  ["COc1cc(/C=C/C2=[N+]3C(=C(c4ccc(NC(=O)CCl)cc4)c4cccn4[B-]3(F)F)C(C)=C2)cc(Br)c1OC", "Qunt. Yield", 0.11]
]}

====

Assay: Spectroscopic measurements (absorption, emission, quantum yield, extinction coefficient)
Type: physicochemical
Settings: fluorescence emission maximum, BDNCA library
recorded.metric: Flu

{"columns": ["molecule", "measured"],
 "data": [
  ["COc1cccc(/C=C/C2=[N+]3C(=C(c4ccc(NC(=O)CCl)cc4)c4cccn4[B-]3(F)F)C(C)=C2)c1F", 575],
  ["COc1ccc(/C=C/C2=[N+]3C(=C(c4ccc(NC(=O)CCl)cc4)c4cccn4[B-]3(F)F)C(C)=C2)cc1[N+](=O)[O-]", 581],
  ["CC1=CC(/C=C/c2ccccc2I)=[N+]2C1=C(c1ccc(NC(=O)CCl)cc1)c1cccn1[B-]2(F)F", 578]
]}

====

Reported values of Qunt. Yield for individual entries
Assay: Spectroscopic measurements (absorption, emission, quantum yield, extinction coefficient)
Assay type: physicochemical
Settings: quantum yield, BDNCA library
recorded.metric: Qunt. Yield

{"columns": ["molecule", "recorded.metric", "measured"],
 "data": [
  ["CCOc1cccc(/C=C/C2=[N+]3C(=C(c4ccc(NC(=O)CCl)cc4)c4cccn4[B-]3(F)F)C(C)=C2)c1OCC [BDNCA-317]", "Qunt. Yield", 0.08],
  ["COc1ccc(/C=C/c2cc(C)c3n2[B-](F)(F)[N+]2=CC=CC2=C3c2ccc(NC(=O)CCl)cc2)c(Cl)c1OC [BDNCA-372]", "Qunt. Yield", 0.13],
  ["COc1cc(/C=C/c2cc(C)c3n2[B-](F)(F)[N+]2=CC=CC2=C3c2ccc(NC(=O)CCl)cc2)ccc1OCCN1CCCC1 [BDNCA-458]", "Qunt. Yield", 0.06],
  ["CC1=CC(/C=C/c2ccc(C)cc2C)=[N+]2C1=C(c1ccc(NC(=O)CCl)cc1)c1cccn1[B-]2(F)F [BDNCA-370]", "Qunt. Yield", 0.08],
  ["CCOc1ccc(/C=C/C2=[N+]3C(=C(c4ccc(NC(=O)CCl)cc4)c4cccn4[B-]3(F)F)C(C)=C2)cc1 [BDNCA-429]", "Qunt. Yield", 0.14],
  ["COc1ccc(/C=C/C2=[N+]3C(=C(c4ccc(NC(=O)CCl)cc4)c4cccn4[B-]3(F)F)C(C)=C2)cc1[N+](=O)[O-] [BDNCA-350]", "Qunt. Yield", 0.07]
]}

====

Test: Spectroscopic measurements (absorption, emission, quantum yield, extinction coefficient)
Assay type: physicochemical
Conditions: BDNCA library

{"columns": ["molecule", "Qunt. Yield"],
 "data": [
  ["COc1ccc(/C=C/c2cc(C)c3n2[B-](F)(F)[N+]2=CC=CC2=C3c2ccc(NC(=O)CCl)cc2)c(O)c1", 0.03],
  ["CCOc1ccc(/C=C/C2=[N+]3C(=C(c4ccc(NC(=O)CCl)cc4)c4cccn4[B-]3(F)F)C(C)=C2)cc1OC", 0.07],
  ["CC1=CC(/C=C/c2ccc(I)cc2)=[N+]2C1=C(c1ccc(NC(=O)CCl)cc1)c1cccn1[B-]2(F)F", 0.13],
  ["COc1ccc2ccccc2c1/C=C/C1=[N+]2C(=C(c3ccc(NC(=O)CCl)cc3)c3cccn3[B-]2(F)F)C(C)=C1", 0.08],
  ["COc1ccc(/C=C/c2cc(C)c3n2[B-](F)(F)[N+]2=CC=CC2=C3c2ccc(NC(=O)CCl)cc2)cc1", 0.16],
  ["CC1=CC(/C=C/c2ccc(C)c(Cl)c2)=[N+]2C1=C(c1ccc(NC(=O)CCl)cc1)c1cccn1[B-]2(F)F", 0.16],
  ["CC1=CC(/C=C/c2cc(C)c(OCc3ccccc3)c(C)c2)=[N+]2C1=C(c1ccc(NC(=O)CCl)cc1)c1cccn1[B-]2(F)F", 0.13],
  ["COc1ccc(/C=C/c2cc(C)c3n2[B-](F)(F)[N+]2=CC=CC2=C3c2ccc(NC(=O)CCl)cc2)c(OC)c1", 0.13],
  ["CC1=CC(/C=C/c2ccc(C)c3ccccc23)=[N+]2C1=C(c1ccc(NC(=O)CCl)cc1)c1cccn1[B-]2(F)F", 0.08],
  ["CC1=CC(/C=C/c2ccc(-c3ccccc3)s2)=[N+]2C1=C(c1ccc(NC(=O)CCl)cc1)c1cccn1[B-]2(F)F", 0.04],
  ["COc1cc(OC)c(/C=C/C2=[N+]3C(=C(c4ccc(NC(=O)CCl)cc4)c4cccn4[B-]3(F)F)C(C)=C2)c(OC)c1", 0.04],
  ["CCCCCCOc1ccc(/C=C/C2=[N+]3C(=C(c4ccc(NC(=O)CCl)cc4)c4cccn4[B-]3(F)F)C(C)=C2)cc1", 0.13],
  ["COc1cccc(/C=C/C2=[N+]3C(=C(c4ccc(NC(=O)CCl)cc4)c4cccn4[B-]3(F)F)C(C)=C2)c1Cl", 0.14],
  ["COc1cc(/C=C/C2=[N+]3C(=C(c4ccc(NC(=O)CCl)cc4)c4cccn4[B-]3(F)F)C(C)=C2)cc(Cl)c1OC", 0.14],
  ["CC1=CC(/C=C/c2ccc(/C=C/c3ccccc3)cc2)=[N+]2C1=C(c1ccc(NC(=O)CCl)cc1)c1cccn1[B-]2(F)F", 0.09],
  ["CC1=CC(/C=C/c2ccc(-n3ccnc3)cc2)=[N+]2C1=C(c1ccc(NC(=O)CCl)cc1)c1cccn1[B-]2(F)F", 0.04],
  ["COc1ccc([N+](=O)[O-])cc1/C=C/C1=[N+]2C(=C(c3ccc(NC(=O)CCl)cc3)c3cccn3[B-]2(F)F)C(C)=C1", 0.12],
  ["CC1=CC(/C=C/c2ccc3c(c2)OCO3)=[N+]2C1=C(c1ccc(NC(=O)CCl)cc1)c1cccn1[B-]2(F)F", 0.09],
  ["COc1cc(F)c(/C=C/c2cc(C)c3n2[B-](F)(F)[N+]2=CC=CC2=C3c2ccc(NC(=O)CCl)cc2)cc1OC", 0.22],
  ["COc1ccc(Oc2ccc(/C=C/c3cc(C)c4n3[B-](F)(F)[N+]3=CC=CC3=C4c3ccc(NC(=O)CCl)cc3)cc2)cc1", 0.09],
  ["CC1=CC(/C=C/c2c3ccccc3cc3ccccc23)=[N+]2C1=C(c1ccc(NC(=O)CCl)cc1)c1cccn1[B-]2(F)F", "weak"],
  ["CC1=CC(/C=C/c2c(C)cc(C)cc2C)=[N+]2C1=C(c1ccc(NC(=O)CCl)cc1)c1cccn1[B-]2(F)F", 0.10],
  ["CC1=CC(/C=C/c2ccc(C(C)C)cc2)=[N+]2C1=C(c1ccc(NC(=O)CCl)cc1)c1cccn1[B-]2(F)F", 0.13],
  ["CC1=CC(/C=C/c2ccc3ccccc3c2)=[N+]2C1=C(c1ccc(NC(=O)CCl)cc1)c1cccn1[B-]2(F)F", 0.10],
  ["COc1cc(/C=C/C2=[N+]3C(=C(c4ccc(NC(=O)CCl)cc4)c4cccn4[B-]3(F)F)C(C)=C2)cc(I)c1OC", 0.14],
  ["CC1=CC(/C=C/c2ccc(OCc3ccccc3)cc2)=[N+]2C1=C(c1ccc(NC(=O)CCl)cc1)c1cccn1[B-]2(F)F", 0.04],
  ["CC1=CC(/C=C/c2ccc(C)o2)=[N+]2C1=C(c1ccc(NC(=O)CCl)cc1)c1cccn1[B-]2(F)F", 0.07]
]}
